# test.target: Mitogen-activated protein kinase kinase kinase 14 (Homo sapiens)
# Sequence (Q99558 whole entry, the tested form may be a part): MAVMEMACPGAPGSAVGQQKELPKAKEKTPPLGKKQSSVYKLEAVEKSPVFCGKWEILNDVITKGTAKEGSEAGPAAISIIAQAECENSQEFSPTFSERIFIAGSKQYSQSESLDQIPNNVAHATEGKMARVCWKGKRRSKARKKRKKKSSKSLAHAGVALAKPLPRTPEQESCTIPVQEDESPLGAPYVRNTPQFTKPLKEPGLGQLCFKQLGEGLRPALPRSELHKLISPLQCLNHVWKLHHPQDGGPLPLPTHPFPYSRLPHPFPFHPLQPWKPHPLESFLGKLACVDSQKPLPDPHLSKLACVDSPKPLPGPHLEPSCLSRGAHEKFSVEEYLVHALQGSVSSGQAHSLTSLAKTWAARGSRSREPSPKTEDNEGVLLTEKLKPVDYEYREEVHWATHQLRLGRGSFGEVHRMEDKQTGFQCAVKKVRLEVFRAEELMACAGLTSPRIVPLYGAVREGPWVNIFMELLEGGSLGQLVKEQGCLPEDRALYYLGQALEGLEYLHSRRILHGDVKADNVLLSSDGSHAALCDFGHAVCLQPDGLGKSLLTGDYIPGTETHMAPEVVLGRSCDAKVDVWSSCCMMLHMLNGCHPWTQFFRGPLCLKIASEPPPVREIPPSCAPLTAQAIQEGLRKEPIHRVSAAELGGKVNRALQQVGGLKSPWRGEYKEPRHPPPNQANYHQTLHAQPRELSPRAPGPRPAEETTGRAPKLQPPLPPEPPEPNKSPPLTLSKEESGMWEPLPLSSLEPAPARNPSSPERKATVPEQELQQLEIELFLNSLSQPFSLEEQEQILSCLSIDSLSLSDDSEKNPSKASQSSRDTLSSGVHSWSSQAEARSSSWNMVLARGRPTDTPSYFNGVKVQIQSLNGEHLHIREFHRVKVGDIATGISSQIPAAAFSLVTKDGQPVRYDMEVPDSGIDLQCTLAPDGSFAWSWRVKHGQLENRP
# measurement.notes: Binding affinity to biotinylated N-terminal 6His-tagged/TEV cleavage site-fused human NIK by SPR analysis
outcome.measure: Kd

Recorded results for 5 molecules are shown here.
Query string: Return reported Kd. Input molecule: Cc1ccc2c(c1)C(O)CCO2 (stereo unspecified)
Result string: > 1000 µM

Query string: Return reported Kd. Input molecule: Cc1cccc2c1C(O)CCO2 (stereo unspecified)
Result string: 134 µM

Query string: Return reported Kd. Input molecule: Cc1ccc2c(c1)OCCC2O (stereo unspecified)
Result string: > 1000 µM

Query string: Return reported Kd. Input molecule: Cc1cccc2c1OCCC2O (stereo unspecified)
Result string: > 1000 µM

Query string: Return reported Kd. Input molecule: COC1CCOc2cc(Cl)ccc21 (stereo unspecified)
Result string: > 1000 µM

# next molecule below
Query string: Return reported Kd. Input molecule: CC1(O)CCOc2cc(Cl)ccc21 (stereo unspecified)
Result string: > 1000 µM
